Molecular target: DES1 (Homo sapiens)
Construct: endogenous in cells; host or cells: ARPE-19
Sequence (O15121 1-323): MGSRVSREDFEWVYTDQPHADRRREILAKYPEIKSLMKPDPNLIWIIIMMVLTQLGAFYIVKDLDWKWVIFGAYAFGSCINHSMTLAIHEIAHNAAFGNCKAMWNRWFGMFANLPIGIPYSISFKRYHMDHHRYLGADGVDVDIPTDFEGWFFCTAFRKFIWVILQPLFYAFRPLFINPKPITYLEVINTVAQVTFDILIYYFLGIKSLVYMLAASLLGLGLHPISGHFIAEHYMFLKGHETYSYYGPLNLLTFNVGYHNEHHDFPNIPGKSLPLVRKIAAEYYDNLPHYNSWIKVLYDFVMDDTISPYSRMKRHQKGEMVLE
Assay: DES1 activity in ARPE-19 cells (dihydroceramide/ceramide ratio, LC/MS)
Assay type: cell-based
Details: 10 μM, 24 h
Procedure: ARPE-19 cells were seeded onto tissue culture plates at a density of 2x10^5 cells/ml in complete medium and allowed to grow overnight. […] Data was acquired and analyzed using Analyst software v 1.5 (AB Sciex). The ratio of substrate to product for C16 and C18 ceramides (dihydroceramide/ceramide) in the presence of DMSO or inhibitors was determined by LC/MS. […]
ASSAY_ENDPOINT: effect on DES1 activity / substrate accumulation

[[record]]
molecule = "CC1=C(/C=C/C(C)=C/C=C/C(C)=C/C(=O)Nc2ccc(O)cc2)C(C)(C)CCC1=O [3-keto-HPR, 4-oxo-N-(4-hydroxyphenyl)retinamide]"
measured_on = "DES1 (Homo sapiens)"
reported_result = "inhibit DES1 activity"

[[record]]
molecule = "CC1=C(/C=C/C(C)=C/C=C/C(C)=C/C(=O)Nc2ccc(O)cc2)C(C)(C)CCC1 [fenretinide, N-[4-hydroxyphenyl]retinamide]"
measured_on = "DES1 (Homo sapiens)"
reported_result = "inhibit DES1 activity"


----------
target: RARβ (Homo sapiens); experiment: GeneBLAzer RAR-beta DA assay, antagonist mode (competition with at-RA); conditions: competition with 1 nM at-RA
Sequence (P10826 183-417 limits assumed): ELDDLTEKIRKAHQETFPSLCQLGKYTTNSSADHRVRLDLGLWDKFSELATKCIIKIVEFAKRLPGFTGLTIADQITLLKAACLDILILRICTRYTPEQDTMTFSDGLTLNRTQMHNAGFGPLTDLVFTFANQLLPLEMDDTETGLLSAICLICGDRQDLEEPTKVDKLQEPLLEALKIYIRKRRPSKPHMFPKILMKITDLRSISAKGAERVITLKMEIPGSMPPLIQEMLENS
ASSAY_ENDPOINT: pIC50
Field pIC50 (float): negative decimal logarithm of the concentration in molar.

Give the value of pIC50 reported for the following: CC1=C(/C=C/C(C)=C/C=C/C(C)=C/C(=O)Nc2ccc(O)cc2)C(C)(C)CCC1 [fenretinide, N-[4-hydroxyphenyl]retinamide] 5.00

----------
Biological target: recombinant mouse BCO1 (Mus musculus, UniProt Q9JJS6)
Construct: His-tag; made in house; host or cells: E. coli
Sequence (Q9JJS6 whole entry): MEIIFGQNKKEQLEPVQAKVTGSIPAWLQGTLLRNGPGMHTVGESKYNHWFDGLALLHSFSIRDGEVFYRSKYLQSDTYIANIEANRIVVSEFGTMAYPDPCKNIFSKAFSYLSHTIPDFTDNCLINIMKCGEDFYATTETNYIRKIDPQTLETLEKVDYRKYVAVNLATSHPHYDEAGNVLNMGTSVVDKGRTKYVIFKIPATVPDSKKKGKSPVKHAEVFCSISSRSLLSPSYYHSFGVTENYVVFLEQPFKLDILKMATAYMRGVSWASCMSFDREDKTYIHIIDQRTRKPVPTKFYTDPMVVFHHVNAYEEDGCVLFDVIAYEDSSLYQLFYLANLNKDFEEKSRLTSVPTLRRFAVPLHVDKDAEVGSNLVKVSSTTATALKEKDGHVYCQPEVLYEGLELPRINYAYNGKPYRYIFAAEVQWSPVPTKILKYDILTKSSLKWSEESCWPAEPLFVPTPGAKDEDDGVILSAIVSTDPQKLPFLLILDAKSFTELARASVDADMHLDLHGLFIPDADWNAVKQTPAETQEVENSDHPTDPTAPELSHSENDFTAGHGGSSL
Assay: In vitro inhibition of recombinant mouse BCO1 activity
Format: biochemical
Details: 20 μM β-carotene; enzyme preincubated with inhibitor 10 min at 4°C; read-out: IC50 BCO1
Excerpt: Recombinant His-tag mouse BCO1 was produced in E.coli and purified using Talon CellThru (Clontech Labs, Inc., Mountain View, CA) resin as described previously. β-carotene was delivered in 1% octylthioglucoside. […] All other inhibitors were delivered in ethanol. […] The final concentration of ethanol in all samples was 1%. […] Data plotted as means±standard deviation; n = 3; […] Analysis was done in C57BL/6 wt (3 animals) and Bco1^-/- mice (13 animals).
ASSAY_ENDPOINT: IC50 (µM)
Provide the reading as a plain figure in µM.

Give the value of IC50 reported for the following: COc1ccc(NC(=O)/C=C(C)/C=C/C=C(C)/C=C/C2=C(C)CCCC2(C)C)cc1 [MPR, N-[4-methoxyphenyl]retinamide] 5
